test: Toxicity in mouse B16-4A5 cells assessed as inhibition of cell proliferation at 30 uM in presence of 1 mM theophylline after 72 hrs by WST8 dye reduction assay; format: cell-based
Consider the following compounds; for each one, report its inhibition at 72 h, 30 µM.

In the examples that follow, each entry is paired with its recorded inhibition at 72 h, 30 µM.
-- ask What does the record list as inhibition at 72 h, 30 µM for O=C(O)c1ccc(O)cc1 [PARABEN] ?
-- reply < 8.8%

-- ask What value of inhibition at 72 h, 30 µM has been reported for the following compound? COc1cc([C@@H]2Oc3ccc([C@H]4Oc5cc(O)cc(O)c5C(=O)[C@@H]4O)cc3O[C@H]2CO)ccc1O [ISOSILYBIN B]
-- reply < 8.8%

-- ask Which inhibition at 72 h, 30 µM value is on record for COc1ccc([C@H]2Oc3c(OC)cc(/C=C/CO)cc3[C@@H]2CO)cc1OC [Hierochin B] ?
-- reply 23.8%

-- ask Entry COc1cc(C(=O)[C@H](CO)c2ccc(O)c(OC)c2)ccc1O [(-)-EVOFOLIN B] has what inhibition at 72 h, 30 µM?
-- reply < 8.8%

-- ask Record request: inhibition at 72 h, 30 µM value, item COc1ccc(C(=O)O)cc1 [p-ANISIC ACID]
-- reply < 8.8%

-- ask Would you kindly share the measured inhibition at 72 h, 30 µM for C[C@@H]1O[C@@H](OC[C@H]2O[C@@H](Oc3c(-c4ccc(O)c(O)c4)oc4cc(O)cc(O)c4c3=O)[C@H](O)[C@@H](O)[C@@H]2O)[C@H](O)[C@H](O)[C@H]1O [RUTIN] ?
-- reply < 8.8%

-- ask # get_value(readout='inhibition at 72 h, 30 µM', item= O=c1c(O)c(-c2ccc(O)cc2)oc2cc(O)cc(O)c12 [KAEMPFEROL] )
-- reply 16.3%

-- ask Recorded inhibition at 72 h, 30 µM of COc1cc(C(C)=O)ccc1O [APOCYNIN] , please.
-- reply < 8.8%

Parameter requested: inhibition at 72 h, 30 µM. Apply to each item below.
1. O=Cc1ccc(O)cc1 [4-HYDROXYBENZALDEHYDE]
2. COc1cc([C@H](O)[C@@H](CO)c2ccc(O)c(OC)c2)ccc1O (relative stereo)
3. COc1cc(C(=O)CO)ccc1O
4. COc1cc(C(=O)CCO)ccc1O
5. O=C1C[C@@H](c2ccc(O)cc2)Oc2cc3oc4cc(O)c(O)cc4c3c(O)c21 [ANASTATIN A]
6. COC/C=C/c1cc(O)c2c(c1)[C@@H](CO)[C@H](c1ccc(O)c(OC)c1)O2 [HIEROCHIN A]

-- reply
["17.6%", "< 8.8%", "< 8.8%", "< 8.8%", "< 8.8%", "< 8.8%"]

Dear colleague, could you please provide inhibition at 72 h, 30 µM for the compounds listed below?
1. O=c1c(O)c(-c2ccc(O)c(O)c2)oc2cc(O)cc(O)c12 [QUERCETIN]
2. O=C1C[C@@H](c2ccc(O)c(O)c2)Oc2cc(O)cc(O)c21 [ERIODICTYOL]
3. COc1cc([C@@H]2Oc3cc([C@H]4Oc5cc(O)cc(O)c5C(=O)[C@@H]4O)ccc3O[C@H]2CO)ccc1O [SILYBIN B]
4. COc1cc([C@@H](O)[C@@H](CO)c2ccc(O)c(OC)c2)ccc1O (relative stereo)
5. COc1cc([C@H]2Oc3cc(O)cc(O)c3C(=O)[C@@H]2O)ccc1O
6. O=C1c2c(O)cc(O)cc2O[C@H](c2ccc(O)c(O)c2)[C@H]1O [(+)-TAXIFOLIN]
7. COc1ccc([C@@H]2Oc3c(O)cc(/C=C/C=O)cc3[C@H]2CO)cc1OC

-- reply
11.9%
< 8.8%
44.4%
< 8.8%
< 8.8%
< 8.8%
< 8.8%
